test system: A2780; test: Cytotoxicity against A2780 cells by MTT assay; format: functional, cell-based; settings: Homo sapiens
One threshold, 4 µM, splits the recorded IC50 values: lower ones are 1, equal or higher ones are 0.

The examples below pair each entry with its known result.
CC(=O)O[C@H]1C(=O)[C@@]2(C)[C@H]([C@H](SCc3ccccc3)[C@]3(O)C[C@H](OC(=O)[C@H](O)[C@@H](NC(=O)OC(C)(C)C)c4ccccc4)C(C)=C1C3(C)C)[C@]1(OC(C)=O)CO[C@@H]1C[C@@H]2O | 1
CC(=O)O[C@H]1C(=O)[C@@]2(C)[C@H]([C@H](SC(=O)c3ccccc3)[C@]3(O)C[C@H](OC(=O)[C@H](O)[C@@H](NC(=O)c4ccccc4)c4ccccc4)C(C)=C1C3(C)C)[C@]1(OC(C)=O)CO[C@@H]1C[C@@H]2O | 0
CC(=O)O[C@H]1C(=O)[C@@]2(C)[C@H]([C@H](SCc3ccccc3)[C@]3(O)C[C@H](OC(=O)[C@H](O)[C@@H](NC(=O)c4ccccc4)c4ccccc4)C(C)=C1C3(C)C)[C@]1(OC(C)=O)CO[C@@H]1C[C@@H]2O | 0
CC(=O)O[C@H]1C(=O)[C@@]2(C)[C@H]([C@H](SC(=O)c3ccccc3)[C@]3(O)C[C@H](OC(=O)[C@H](O)[C@@H](NC(=O)OC(C)(C)C)c4ccccc4)C(C)=C1C3(C)C)[C@]1(OC(C)=O)CO[C@@H]1C[C@@H]2O | 1

From here, focus on the item given below.
[in] Given CC(=O)O[C@H]1C(=O)[C@@]2(C)[C@H]([C@H](OC(=O)c3ccccc3)[C@]3(O)C[C@H](OC(=O)[C@H](O)[C@@H](NC(=O)c4ccccc4)c4ccccc4)C(C)=C1C3(C)C)[C@]1(OC(C)=O)CO[C@@H]1C[C@@H]2O , is recorded IC50 strictly lower than 4 µM?
[out] 1
